# Target Or System: T1, recombinant human TGF-β RII/Fc chimera protein (human, UniProt P37173 24-159)
# T1 construct: range 24-159; Made in HEK-F cells; Biotinylated where it was put on SA chips, otherwise captured by anti-human IgG; also called human TGFbRII/Fc; hRII-Fc; not shown: Fc region of human IgG1
# T1 sequence (P37173 24-159 limits assumed, change not shown): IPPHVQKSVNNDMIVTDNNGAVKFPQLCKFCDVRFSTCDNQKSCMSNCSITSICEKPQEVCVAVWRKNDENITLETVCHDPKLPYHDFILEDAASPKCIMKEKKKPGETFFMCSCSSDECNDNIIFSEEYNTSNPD
# Run Description: SPR Biacore A100, antigen-Fc captured by anti-human IgG, purified dAb, 1:1 model
Please use 1 for Kd under 2 nM and -1 for everything else, ties included.

INSERT INTO measurements (binder, classification) VALUES
  ('DOM23h-271 mutant 1D9 (R at 61, D at 64) (VHH, name in Kabat numbering, human VH dAb; expressed from pDOM13; also called RD) VHH: EVQLLESGGGLVQPGGSLRLSCAASGFTFTEYRMWWVRQAPGKGLEWVSAIEPIGNRTYYARSVDGRFTISRDNSKNTLYLQMNSLRAEDTAVYYCAKQIPGRKWTANSRFDYWGQGTLVTVSS', 1),
  ('DOM23h-271 mutant 3F11 (R at 61, E at 64) (VHH, name in Kabat numbering, human VH dAb; expressed from pDOM13; also called RE) VHH: EVQLLESGGGLVQPGGSLRLSCAASGFTFTEYRMWWVRQAPGKGLEWVSAIEPIGNRTYYARSVEGRFTISRDNSKNTLYLQMNSLRAEDTAVYYCAKQIPGRKWTANSRFDYWGQGTLVTVSS', -1),
  ('DOM23h-271 mutant 1E6 (R at 61, Y at 64) (VHH, name in Kabat numbering, human VH dAb; expressed from pDOM13; also called RY) VHH: EVQLLESGGGLVQPGGSLRLSCAASGFTFTEYRMWWVRQAPGKGLEWVSAIEPIGNRTYYARSVYGRFTISRDNSKNTLYLQMNSLRAEDTAVYYCAKQIPGRKWTANSRFDYWGQGTLVTVSS', 1),
  ('DOM23h-271 mutant 1B2 (V at 61, W at 64) (VHH, name in Kabat numbering, human VH dAb; expressed from pDOM13; also called VW) VHH: EVQLLESGGGLVQPGGSLRLSCAASGFTFTEYRMWWVRQAPGKGLEWVSAIEPIGNRTYYAVSVWGRFTISRDNSKNTLYLQMNSLRAEDTAVYYCAKQIPGRKWTANSRFDYWGQGTLVTVSS', 1),
  ('DOM23h-271 mutant 1H11 (L at 61, W at 64) (VHH, name in Kabat numbering, human VH dAb; expressed from pDOM13; also called LW) VHH: EVQLLESGGGLVQPGGSLRLSCAASGFTFTEYRMWWVRQAPGKGLEWVSAIEPIGNRTYYALSVWGRFTISRDNSKNTLYLQMNSLRAEDTAVYYCAKQIPGRKWTANSRFDYWGQGTLVTVSS', -1),
  ('DOM23h-271 mutant 1D5 (K at 61, F at 64) (VHH, name in Kabat numbering, human VH dAb; expressed from pDOM13; also called KF) VHH: EVQLLESGGGLVQPGGSLRLSCAASGFTFTEYRMWWVRQAPGKGLEWVSAIEPIGNRTYYAKSVFGRFTISRDNSKNTLYLQMNSLRAEDTAVYYCAKQIPGRKWTANSRFDYWGQGTLVTVSS', -1),
  ('DOM23h-271 mutant 1B11 (R at 61, V at 64) (VHH, name in Kabat numbering, human VH dAb; expressed from pDOM13; also called RV) VHH: EVQLLESGGGLVQPGGSLRLSCAASGFTFTEYRMWWVRQAPGKGLEWVSAIEPIGNRTYYARSVVGRFTISRDNSKNTLYLQMNSLRAEDTAVYYCAKQIPGRKWTANSRFDYWGQGTLVTVSS', 1),
  ('DOM23h-271 mutant 2C12 (D61N, K64R) (VHH, name in Kabat numbering, human VH dAb; expressed from pDOM13; also called NR) VHH: EVQLLESGGGLVQPGGSLRLSCAASGFTFTEYRMWWVRQAPGKGLEWVSAIEPIGNRTYYANSVRGRFTISRDNSKNTLYLQMNSLRAEDTAVYYCAKQIPGRKWTANSRFDYWGQGTLVTVSS', -1),
  ('DOM23h-271 mutant 3D4 (K at 61, T at 64) (VHH, name in Kabat numbering, human VH dAb; expressed from pDOM13; also called KT) VHH: EVQLLESGGGLVQPGGSLRLSCAASGFTFTEYRMWWVRQAPGKGLEWVSAIEPIGNRTYYAKSVTGRFTISRDNSKNTLYLQMNSLRAEDTAVYYCAKQIPGRKWTANSRFDYWGQGTLVTVSS', -1),
  ('DOM23h-271 mutant 3D9 (K at 61, G at 64) (VHH, name in Kabat numbering, human VH dAb; expressed from pDOM13; also called KG) VHH: EVQLLESGGGLVQPGGSLRLSCAASGFTFTEYRMWWVRQAPGKGLEWVSAIEPIGNRTYYAKSVGGRFTISRDNSKNTLYLQMNSLRAEDTAVYYCAKQIPGRKWTANSRFDYWGQGTLVTVSS', -1),
  ('DOM23h-271 mutant 1A2 (R at 61, A at 64) (VHH, name in Kabat numbering, human VH dAb; expressed from pDOM13) VHH: EVQLLESGGGLVQPGGSLRLSCAASGFTFTEYRMWWVRQAPGKGLEWVSAIEPIGNRTYYARSVAGRFTISRDNSKNTLYLQMNSLRAEDTAVYYCAKQIPGRKWTANSRFDYWGQGTLVTVSS', -1),
  ('DOM23h-271 mutant 1G11 (R at 61, M at 64) (VHH, name in Kabat numbering, human VH dAb; expressed from pDOM13; also called RM) VHH: EVQLLESGGGLVQPGGSLRLSCAASGFTFTEYRMWWVRQAPGKGLEWVSAIEPIGNRTYYARSVMGRFTISRDNSKNTLYLQMNSLRAEDTAVYYCAKQIPGRKWTANSRFDYWGQGTLVTVSS', 1);

The values you see were collected from patent US20150361176A1.
